- measuredOn: Heat shock factor protein 1 (Homo sapiens)
- assayText: ATG_HSE_CIS: Attagene CIS-FACTORIAL HepG2 Assay for human Heat Shock Transcription Factor 1 (HSE) (AID 2282953)
- condition: HepG2 HSE cis-reporter, Attagene RNA transcription; actives raise or lower the signal
- Experimental: ATG_CIS is a cell-based, multiplexed-readout assay that uses HepG2, a human liver cell line, with measurements taken at 24 hours after chemical dosing in a 24-well plate.ATG_HSE_CIS is one of 52 assay component(s) measured or calculated from the ATG_CIS assay. […] This assay endpoint, ATG_HSE_CIS, was analyzed with bidirectional fitting relative to DMSO as the negative control and baseline of activity. […]
Calls of active or inactive are those of the source. How the source made its calls: active means hit-call score of the fitted dose curve at least 0.9, where 1 is the maximum; inactive means score below 0.9.
// allowed return values: active, inactive

molecule: CC(C)(C)c1ccc(CCC=O)cc1
assignedLabel: inactive
//
molecule: Oc1cccc2c(O)cccc12
assignedLabel: inactive

Query: Just curious, what result did FC(F)(F)C(F)(F)C(F)(F)Br get here?
Result: inactive

Query: Just curious, what result did NNc1nc(-c2ccc([N+](=O)[O-])cc2)cs1 get here?
Result: active

Query: Just curious, what result did O=C1OC(=O)c2cc(-c3ccc4c(c3)C(=O)OC4=O)ccc21 get here?
Result: inactive

Query: Just curious, what result did CC(O)COc1ccccc1 (configuration not stated) get here?
Result: inactive

Query: Just curious, what result did CCOC(=O)c1nc(C(Cl)(Cl)Cl)n(-c2ccc(Cl)cc2Cl)n1 get here?
Result: active

====

- Read-out: Tissue Factor, F3 (gene 2152)
- assayText: BSK_CASM3C_TissueFactor: BioMAP Diversity Plus: CASM3C Assay for Tissue Factor Biomarker Activity (AID 2283052);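 further: cell surface tissue factor protein level read by ELISA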
- condition: primary human coronary artery smooth muscle cells; actives raise or lower the signal
Active and inactive are the calls of the source. The calls were made as follows: active = hit-call score of the fitted dose curve at least 0.9, where 1 is the maximum; inactive = score below 0.9.
// allowed return values: active, inactive

The following compounds have reported results that may help.
smilesCode: Cc1[nH]nc2c1N=C(c1ccccc1Cl)c1cc([N+](=O)[O-])ccc1N2
assignedLabel: inactive

smilesCode: O=C1OC2(c3ccccc31)c1cc(I)c(O)c(I)c1Oc1c2cc(I)c(O)c1I
assignedLabel: inactive

smilesCode: NC(=NCCCCCCN=C(N)/N=C(\N)Nc1ccc(Cl)cc1)/N=C(\N)Nc1ccc(Cl)cc1
assignedLabel: active

Query: Just curious, what result did CCCCc1oc2ccccc2c1C(=O)c1cc(I)c(OCCN(CC)CC)c(I)c1 get here?
Result: active

Query: Just curious, what result did C=CC(=O)OCCC(F)(F)C(F)(F)C(F)(F)C(F)(F)C(F)(F)C(F)(F)C(F)(F)C(F)(F)F get here?
Result: inactive

====

- measuredOn: Peroxisome proliferator-activated receptor gamma (Homo sapiens) (UniProt P37231)
- Sequence (P37231 whole entry, looked up): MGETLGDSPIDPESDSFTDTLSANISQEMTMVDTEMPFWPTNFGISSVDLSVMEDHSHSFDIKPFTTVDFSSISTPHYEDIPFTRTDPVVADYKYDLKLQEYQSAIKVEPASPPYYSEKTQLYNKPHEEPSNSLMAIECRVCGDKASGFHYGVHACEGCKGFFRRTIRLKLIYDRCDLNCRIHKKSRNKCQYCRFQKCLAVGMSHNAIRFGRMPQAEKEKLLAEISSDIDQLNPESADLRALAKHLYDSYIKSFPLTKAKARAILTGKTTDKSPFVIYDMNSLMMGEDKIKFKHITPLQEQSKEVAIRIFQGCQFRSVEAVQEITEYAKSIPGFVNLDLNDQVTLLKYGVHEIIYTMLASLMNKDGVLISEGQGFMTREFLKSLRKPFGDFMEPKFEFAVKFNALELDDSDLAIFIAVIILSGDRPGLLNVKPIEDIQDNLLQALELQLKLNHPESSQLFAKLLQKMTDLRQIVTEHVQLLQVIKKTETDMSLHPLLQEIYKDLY
- assayText: ATG_PPARg_TRANS: Attagene TRANS-FACTORIAL HepG2 Assay for human Peroxisome Proliferator-activated Receptor-gamma (PPARg) (AID 2283007)
Results filed as inconclusive are left out. Calls of active or inactive are those of the source. How the source made its calls: active means hit-call score of the fitted dose curve at least 0.9, where 1 is the maximum; inconclusive means response in the unintended direction; inactive means score below 0.9.
quantityMeasured: AC50

Take a look at these entries with their results.
molecule: CCOC(OCC)C(=O)c1ccccc1
measurement: inactive
--
molecule: CCCCCCCCCCCC
measurement: inactive
--
molecule: O=C1NS(=O)(=O)c2ccccc21
measurement: inactive
--
molecule: Nc1ccc(O)c(C(=O)O)c1
measurement: inactive
--
molecule: CCCCc1oc2ccccc2c1C(=O)c1cc(I)c(OCCN(CC)CC)c(I)c1
measurement: inactive

Entry C[N+](C)(CCCNS(=O)(=O)CCC(F)(F)C(F)(F)C(F)(F)C(F)(F)C(F)(F)C(F)(F)F)CC(=O)[O-] ; assay system Peroxisome proliferator-activated receptor gamma (Homo sapiens) (UniProt P37231); AC50 recorded at inactive

Entry COC(O)c1ccccc1 (stereo unspecified) ; assay system Peroxisome proliferator-activated receptor gamma (Homo sapiens) (UniProt P37231); AC50 recorded at inactive

Entry CN(CCO)S(=O)(=O)C(F)(F)C(F)(F)C(F)(F)C(F)(F)C(F)(F)C(F)(F)C(F)(F)C(F)(F)F ; assay system Peroxisome proliferator-activated receptor gamma (Homo sapiens) (UniProt P37231); AC50 recorded at inactive
